Items are presented alongside their recorded PBM 8-mer E-score.
test system: 2Sp-muMax20 (muMax20 with two 2,6-bis(methyl)pyridine Cys staples); experiment: PBM 8-mer E-score (E-score (rank enrichment, -0.5 to 0.5)); higher = stronger preferential binding
Over roughly 33,000 sequences, “E-score (rank enrichment, -0.5 to 0.5)” has its median near -0.0043; the highest 2% begin near 0.24. This is one part of a sample in which the highest values are shown more often than they occur.

AATACTTA    0.0568
CGCGCTGA    0.00249
ACAGAGAA    0.129
TAGGATCA    -0.0923
AAAGTTTA    0.206

Q: Can you share its PBM 8-mer E-score? I mean this sequence: `GTACCAAC`
Ans: -0.0554

Q: Can you share its PBM 8-mer E-score? I mean this sequence: `AGTGGGGA`
Ans: 0.245

Q: Can you share its PBM 8-mer E-score? I mean this sequence: `GACAGGTC`
Ans: -0.12

Q: Can you share its PBM 8-mer E-score? I mean this sequence: `GAGGTCCC`
Ans: -0.243

----------
test system: 2Sp-muMax20 (muMax20 with two 2,6-bis(methyl)pyridine Cys staples); assay: PBM 8-mer E-score (E-score (rank enrichment, -0.5 to 0.5)); higher = stronger preferential binding
The full ranking holds about 33,000 sequences; the median of “E-score (rank enrichment, -0.5 to 0.5)” is about -0.0043, and the highest 2% start at about 0.24. This is one part of a sample in which the highest values are shown more often than they occur.
Field: class. Source value: PBM 8-mer E-score. Ranges: low end: < -0.003; middle: ≥ -0.003 and < 0.2; high end: ≥ 0.2

GAAATAAC    low end

Q: In plain terms, what class is `GTGTGGCA` ?
Ans: middle

Q: In plain terms, what class is `AAAGGAGA` ?
Ans: middle

Q: In plain terms, what class is `ACATTCGG` ?
Ans: low end

----------
test system: 2Sp-muMax20 (muMax20 with two 2,6-bis(methyl)pyridine Cys staples); test: PBM 8-mer E-score (E-score (rank enrichment, -0.5 to 0.5)); higher = stronger preferential binding
Whole data set: some 33,000 sequences, median “E-score (rank enrichment, -0.5 to 0.5)” near -0.0043, cut for the highest 2% near 0.24. Only a selection was taken, and the highest values are over-represented in it overall.
Please mark condition met if the recorded PBM 8-mer E-score is equal to or greater than 0.09, and condition not met if it falls below.

Solved entries (count: 5):
GACCTGCC    condition not met
ATACAAAA    condition met
CCGTCGGC    condition not met
CTACAAAA    condition not met
ATACAAGC    condition met

Q: hey, is PBM 8-mer E-score for this one >= 0.09? `CGGGATAG`
Ans: condition not met

Q: hey, is PBM 8-mer E-score for this one >= 0.09? `CTATCATA`
Ans: condition met

Q: hey, is PBM 8-mer E-score for this one >= 0.09? `ATATCAGA`
Ans: condition met

Q: hey, is PBM 8-mer E-score for this one >= 0.09? `GGCGCACC`
Ans: condition not met

Q: hey, is PBM 8-mer E-score for this one >= 0.09? `CTACAAGC`
Ans: condition not met

Q: hey, is PBM 8-mer E-score for this one >= 0.09? `GCCTTGAC`
Ans: condition not met

Q: hey, is PBM 8-mer E-score for this one >= 0.09? `ATATCAGC`
Ans: condition not met

Q: hey, is PBM 8-mer E-score for this one >= 0.09? `ATATCATG`
Ans: condition met

Q: hey, is PBM 8-mer E-score for this one >= 0.09? `AGGGCTCA`
Ans: condition not met

Q: hey, is PBM 8-mer E-score for this one >= 0.09? `AGAAGCGA`
Ans: condition not met

Q: hey, is PBM 8-mer E-score for this one >= 0.09? `ACATCATA`
Ans: condition met

Q: hey, is PBM 8-mer E-score for this one >= 0.09? `GTGTCATA`
Ans: condition met

Q: hey, is PBM 8-mer E-score for this one >= 0.09? `ATTAACGA`
Ans: condition not met

Q: hey, is PBM 8-mer E-score for this one >= 0.09? `AAACTGTA`
Ans: condition not met

Q: hey, is PBM 8-mer E-score for this one >= 0.09? `ATATCATA`
Ans: condition met

Q: hey, is PBM 8-mer E-score for this one >= 0.09? `ATACAAAT`
Ans: condition met

----------
tested on: 2Sp-muMax20 (muMax20 with two 2,6-bis(methyl)pyridine Cys staples); assay: PBM 8-mer E-score (E-score (rank enrichment, -0.5 to 0.5)); higher = stronger preferential binding
The full ranking holds about 33,000 sequences; the median of “E-score (rank enrichment, -0.5 to 0.5)” is about -0.0043, and the highest 2% start at about 0.24. The sample holds the highest values, similar sequences and a random draw of the others, so the mix is not that of the screen.
Please mark Yes if the recorded PBM 8-mer E-score is equal to or greater than 0.1, and No if it falls below.

Solved entries (count: 2):
CATATTGG    Yes
CAACCCAA    No

Q: hey, is PBM 8-mer E-score for this one >= 0.1? `AATATTGG`
Ans: No

Q: hey, is PBM 8-mer E-score for this one >= 0.1? `CGAATTTA`
Ans: Yes

Q: hey, is PBM 8-mer E-score for this one >= 0.1? `CAACCCCC`
Ans: No

Q: hey, is PBM 8-mer E-score for this one >= 0.1? `GATATTAC`
Ans: Yes

Q: hey, is PBM 8-mer E-score for this one >= 0.1? `GCATGGGA`
Ans: No

Q: hey, is PBM 8-mer E-score for this one >= 0.1? `TATATTAA`
Ans: Yes

----------
test system: 2Sp-muMax20 (muMax20 with two 2,6-bis(methyl)pyridine Cys staples); experiment: PBM 8-mer E-score (E-score (rank enrichment, -0.5 to 0.5)); higher = stronger preferential binding
Whole data set: some 33,000 sequences, median “E-score (rank enrichment, -0.5 to 0.5)” near -0.0043, cut for the highest 2% near 0.24. For the sample, the highest values were picked, then their nearest neighbours and some sequences at random.
Please mark T if the recorded PBM 8-mer E-score is equal to or greater than 0.08, and F if it falls below.

Q: hey, is PBM 8-mer E-score for this one >= 0.08? `AAGTCAAA`
Ans: F

Q: hey, is PBM 8-mer E-score for this one >= 0.08? `CCGTGACG`
Ans: F

Q: hey, is PBM 8-mer E-score for this one >= 0.08? `ATGTAATG`
Ans: T

Q: hey, is PBM 8-mer E-score for this one >= 0.08? `CCACGTAC`
Ans: F

----------
test system: 2Sp-muMax20 (muMax20 with two 2,6-bis(methyl)pyridine Cys staples); assay: PBM 8-mer E-score (E-score (rank enrichment, -0.5 to 0.5)); higher = stronger preferential binding
Whole data set: some 33,000 sequences, median “E-score (rank enrichment, -0.5 to 0.5)” near -0.0043, cut for the highest 2% near 0.24. Only a selection was taken, and the highest values are over-represented in it overall.
Items are presented alongside their recorded PBM 8-mer E-score.
// no unit string in output, number only

GCAACGGA    0.0572
AGTATAAT    0.307
GTAGAGAA    -0.00059
CACAAATC    0.052
AGTATACT    0.287

Q: Can you share its PBM 8-mer E-score? I mean this sequence: `ACTATAAG`
Ans: 0.147

Q: Can you share its PBM 8-mer E-score? I mean this sequence: `GGTAGCAA`
Ans: 0.163

----------
Items are presented alongside their recorded PBM 8-mer E-score.
tested on: 2Sp-muMax20 (muMax20 with two 2,6-bis(methyl)pyridine Cys staples); test: PBM 8-mer E-score (E-score (rank enrichment, -0.5 to 0.5)); higher = stronger preferential binding
The full ranking holds about 33,000 sequences; the median of “E-score (rank enrichment, -0.5 to 0.5)” is about -0.0043, and the highest 2% start at about 0.24. The sample as a whole holds a higher share of the highest values than the screen did.

ACCACTTC    0.0215
GTGTGGAA    0.118
AAACCTGA    -0.0739
ACCCCACA    0.239
GCCACTTA    0.0747

Query sequence follows.
Q: Can you share its PBM 8-mer E-score? I mean this sequence: `CCCACTTA`
Ans: 0.236

----------
Items are presented alongside their recorded PBM 8-mer E-score.
system: 2Sp-muMax20 (muMax20 with two 2,6-bis(methyl)pyridine Cys staples); assay: PBM 8-mer E-score (E-score (rank enrichment, -0.5 to 0.5)); higher = stronger preferential binding
Over roughly 33,000 sequences, “E-score (rank enrichment, -0.5 to 0.5)” has its median near -0.0043; the highest 2% begin near 0.24. The sample holds the highest values, similar sequences and a random draw of the others, so the mix is not that of the screen.

Q: Form field - read-out: PBM 8-mer E-score; system: 2Sp-muMax20 (muMax20 with two 2,6-bis(methyl)pyridine Cys staples); submitted item: `AAATAGGT`
Ans: 0.241
